Recorded values, source ChEMBL document CHEMBL4007513.

Target: Tyrosyl-DNA phosphodiesterase 1 (Homo sapiens, UniProt Q9NUW8)
Sequence (Q9NUW8 whole entry): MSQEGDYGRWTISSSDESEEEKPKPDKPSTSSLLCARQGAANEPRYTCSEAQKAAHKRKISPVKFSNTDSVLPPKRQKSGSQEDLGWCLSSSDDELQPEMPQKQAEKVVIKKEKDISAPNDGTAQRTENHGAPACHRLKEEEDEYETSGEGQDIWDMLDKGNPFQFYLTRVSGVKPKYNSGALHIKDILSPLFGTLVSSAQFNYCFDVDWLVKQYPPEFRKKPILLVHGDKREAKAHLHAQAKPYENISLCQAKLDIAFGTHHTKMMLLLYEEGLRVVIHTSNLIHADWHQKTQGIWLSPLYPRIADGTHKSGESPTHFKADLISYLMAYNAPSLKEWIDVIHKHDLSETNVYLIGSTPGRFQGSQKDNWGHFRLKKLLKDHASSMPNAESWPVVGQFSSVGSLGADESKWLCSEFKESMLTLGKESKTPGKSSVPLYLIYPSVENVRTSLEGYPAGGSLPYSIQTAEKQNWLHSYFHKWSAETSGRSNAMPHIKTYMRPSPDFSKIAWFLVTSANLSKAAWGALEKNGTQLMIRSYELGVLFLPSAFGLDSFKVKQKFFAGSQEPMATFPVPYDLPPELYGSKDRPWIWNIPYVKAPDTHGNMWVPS
Assay: Inhibition of recombinant Tdp1 (unknown origin) assessed as decrease in hydrolysis of phosphodiester linkage between tyrosine residue and the 3' end of 5'-[32P]-DNA after 15 mins by PAGE analysis
assay.metric: inhibition

{"smiles.notation": "COc1cnc2c(c1)C(=O)c1c-2n(CCCNC2=NCCS2)c(=O)c2cc([N+](=O)[O-])ccc12", "system.under.test": "Tyrosyl-DNA phosphodiesterase 1 (Homo sapiens, UniProt Q9NUW8)", "result": "Dose-dependent effect"}
{"smiles.notation": "COc1cnc2c(c1)C(=O)c1c-2n(CCCN2CCC(N)CC2)c(=O)c2cc([N+](=O)[O-])ccc12", "system.under.test": "Tyrosyl-DNA phosphodiesterase 1 (Homo sapiens, UniProt Q9NUW8)", "result": "Dose-dependent effect"}
{"smiles.notation": "COc1cnc2c(c1)C(=O)c1c-2n(CCCN2CCCC2)c(=O)c2cc([N+](=O)[O-])ccc12", "system.under.test": "Tyrosyl-DNA phosphodiesterase 1 (Homo sapiens, UniProt Q9NUW8)", "result": "Dose-dependent effect"}

* * *

Molecular target: Tyrosyl-DNA phosphodiesterase 2 (Homo sapiens)
Sequence (O95551 whole entry): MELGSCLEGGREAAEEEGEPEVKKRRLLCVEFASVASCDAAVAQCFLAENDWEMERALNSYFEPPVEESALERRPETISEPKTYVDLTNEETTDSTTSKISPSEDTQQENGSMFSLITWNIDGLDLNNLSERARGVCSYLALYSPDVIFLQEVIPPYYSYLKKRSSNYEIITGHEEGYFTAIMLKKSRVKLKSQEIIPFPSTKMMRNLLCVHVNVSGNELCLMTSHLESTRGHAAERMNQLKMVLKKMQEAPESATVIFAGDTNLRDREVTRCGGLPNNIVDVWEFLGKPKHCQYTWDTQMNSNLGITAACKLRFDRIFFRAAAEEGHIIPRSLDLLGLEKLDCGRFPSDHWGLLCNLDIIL
Test: Inhibition of recombinant human Tdp2 assessed as decrease in alpha 32P-cordycepin-3'-labeled DNA breaks after 15 mins by PAGE analysis
pIC50: −log10 of the molar value.
The entries below are paired with their reported pIC50.

{"smiles.notation": "COc1cnc2c(c1)C(=O)c1c-2n(CCCNC2=NCCS2)c(=O)c2cc([N+](=O)[O-])ccc12", "pIC50": "4.43 to 4.92"}
{"smiles.notation": "CCNCCCn1c2c(c3ccc([N+](=O)[O-])cc3c1=O)C(=O)c1cc(OC)cnc1-2", "pIC50": "3.95 to 4.43"}
{"smiles.notation": "COc1cnc2c(c1)C(=O)c1c-2n(CCCN2CCCC2)c(=O)c2cc([N+](=O)[O-])ccc12", "pIC50": "3.95 to 4.43"}
{"smiles.notation": "COc1cnc2c(c1)C(=O)c1c-2n(CCCN2CCN(C)CC2)c(=O)c2cc([N+](=O)[O-])ccc12", "pIC50": "4.43 to 4.92"}

* * *

Test system: SF-539
Experiment: Cytotoxicity against human SF539 cells after 48 hrs by SRB assay
Type: functional
Conditions: SF-539, 48 h
assay.metric: GI50 (µM)

{"compound": "COc1cnc2c(c1)C(=O)c1c-2n(CCCNCCN2CCOCC2)c(=O)c2cc([N+](=O)[O-])ccc12", "system.under.test": "SF-539", "comparative.sign": "=", "numeric.value": 0.311}
{"compound": "CNCCCn1c2c(c3ccc([N+](=O)[O-])cc3c1=O)C(=O)c1cc(OC)cnc1-2", "system.under.test": "SF-539", "comparative.sign": "=", "numeric.value": 0.051}
{"compound": "CC[C@@]1(O)C(=O)OCc2c1cc1n(c2=O)Cc2cc3ccccc3nc2-1 [CAMPTOTHECIN]", "system.under.test": "SF-539", "comparative.sign": "<", "numeric.value": 0.01}
{"compound": "COc1cnc2c(c1)C(=O)c1c-2n(CCCN2CCN(C)CC2)c(=O)c2cc([N+](=O)[O-])ccc12", "system.under.test": "SF-539", "comparative.sign": "=", "numeric.value": 0.191}
{"compound": "COc1cnc2c(c1)C(=O)c1c-2n(CCCNC(C)C)c(=O)c2cc([N+](=O)[O-])ccc12", "system.under.test": "SF-539", "comparative.sign": "=", "numeric.value": 0.051}
{"compound": "COc1cnc2c(c1)C(=O)c1c-2n(CCCN2CCNCC2)c(=O)c2cc([N+](=O)[O-])ccc12", "system.under.test": "SF-539", "comparative.sign": "=", "numeric.value": 0.355}
{"compound": "CCNCCCn1c2c(c3ccc([N+](=O)[O-])cc3c1=O)C(=O)c1cc(OC)cnc1-2", "system.under.test": "SF-539", "comparative.sign": "=", "numeric.value": 0.07}
{"compound": "COc1cnc2c(c1)C(=O)c1c-2n(CCCN2CCCC2)c(=O)c2cc([N+](=O)[O-])ccc12", "system.under.test": "SF-539", "comparative.sign": "=", "numeric.value": 0.031}
